test: Oral bioavailability in C57BL/6 mouse at 10 mg/kg; assay type: ADME, organism-based; conditions: in vivo
Readings of bioavailability for the listed compounds
measure: bioavailability

chemical-structure	measure	result
COc1cccc([C@@H](C)NC(=O)N2CCN(c3ccnc(F)c3)C[C@H]2C)c1	bioavailability	36%
COc1cc(F)cc([C@@H](C)NC(=O)N2CCN(c3ccncc3F)C[C@H]2C)c1	bioavailability	78%

---

assay: Apparent permeability in MDCK-MDR1 cells at 10 uM after 1 hr by LC-MS/MS analysis; assay type: ADME, cell-based, Canis lupus familiaris; conditions: dog
Criterion: Papp at 1 h, 10 µM strictly under 100 ×10⁻⁶ cm/s. Met: 1. Not met: 0.

chemical-structure	class
COc1ccc(Cl)c([C@@H](C)NC(=O)N2CCN(c3ccncc3F)C[C@H]2C)c1	0
COc1cccc([C@@H](C)NC(=O)N2CCN(c3ccncc3F)C[C@H]2C)c1F	1
C[C@@H]1CN(c2ccncc2F)CCN1C(=O)N[C@H](C)c1cccn2nccc12	0
COc1cccc([C@@H](C)NC(=O)[C@H]2CC[C@H](c3ccncc3)C[C@H]2C)c1	1
COc1cccc([C@@H](C)NC(=O)N2CCN(c3ccnc(F)c3)C[C@H]2C)c1	1

# credit: ChEMBL document CHEMBL5131572
